All values here come from the supplement of paper PMC10878532.

- System: human spermatozoa;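 also: pooled live human sperm from at least 3 donors, tracked by automated microscopy in 0.5 s time-lapse movies, compounds at 10 and 30 µM, versus median of 16 DMSO wells per plate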
- Test protocol: progressively motile sperm, percent change vs DMSO (non-capacitating); higher = more of the measured sperm population than DMSO, for viability, fewer PI-positive (dead) cells than DMSO; extreme values may be limits of the assay
- Condition context: incubation time: 10min incubation, 9.99 µM
Structures can show the parent of a compound that is named as a salt.
Recorded endpoint: progressively motile sperm
Enter the number, and then the unit.

> print(dat)
                                   compound  measurement
1  COc1cc2nc(N(C)CCCNC(=O)C3CCCO3)nc(N)c2cc1OC (centres undefined)       0.477%
2  COC(=O)[C@]1(C)CC[C@]2(C)CC[C@]3(C)C4=CC=C5C(=CC(=O)C(O)=C5C)[C@]4(C)CC[C@@]3(C)[C@@H]2C1       -86.8%
3  CCc1c(C)nc(SCC(=O)Nc2nc(-c3ccc(OC)cc3)cs2)[nH]c1=O        5.37%
4  N=C(N)Nc1nc(-c2ccc(Cl)cc2)cs1 [n-[4-(4-Chlorophenyl)-1,3-thiazol-2-yl]guanidine]        9.51%
5  CCCCN1C[C@@H](O)[C@H](O)[C@H](O)[C@@H]1CO      -0.816%
6  Nc1ncnc2c1c(-c1cccc(OCc3ccccc3)c1)cn2[C@H]1C[C@@H](CN2CCC2)C1        6.28%
7  CNC(=O)c1ccccc1Nc1nc(Nc2ccc(N3CCOCC3)cc2OC)ncc1Cl        30.1%
8  COCC(=O)O[C@]1(CCN(C)CCCc2nc3ccccc3[nH]2)CCc2cc(F)ccc2[C@@H]1C(C)C        1.95%

query: I'd like to know its progressively motile sperm. The compound in question is `CCCCCCOC(=O)[C@]1(O)C[C@@H]2O[C@@]1(C)n1c3ccccc3c3c4c(c5c6ccccc6n2c5c31)C(=O)NC4`
result: -3.28%

query: Reported progressively motile sperm for C=C[C@@]1(C)CC(=O)[C@@]2(O)[C@](C)(O1)[C@@H](OC(C)=O)[C@@H](O)C1C(C)(C)CC[C@H](O)[C@@]12C (some centres undefined) : what is it?
result: 0.859%

query: Entry `O=C(O)c1cccnc1Nc1cccc(C(F)(F)F)c1` has what progressively motile sperm?
result: 9.44%

query: May I ask what progressively motile sperm has been recorded for `CNc1ccc2oc(C[C@H]3O[C@@]4(CC[C@H]3C)O[C@H]([C@H](C)C(=O)c3ccc[nH]3)[C@H](C)C[C@H]4C)nc2c1C(=O)O` ?
result: -82.5%

query: Can you share its progressively motile sperm? I mean this compound: CCOc1ccc(-c2nc(-c3cccc4c3CCC4NCCO)no2)cc1OCC (centres undefined) [CYM 5442 hydrchloride]
result: 15.6%

query: Which progressively motile sperm value is on record for COc1cc2c(cc1OC)-c1c/c(=N\c3c(C)cc(C)cc3C)n(C)c(=O)n1CC2 [Trequinsin hydrochloride] ?
result: 33.3%
